Measured PL, listed per entry for reference.
- Species on record: Rattus norvegicus
- ASSAY: Open TG-GATES - Regimen: Single
- Format: toxicity, organism-based, Sprague-Dawley
- Parameters: regimen Single, gender Male, age 6 weeks
- CONDITION: in vivo, po, 0 mg/kg, 9 h, tissue Plasma, route gavage, dose level Control
# unit: mg/dL | format: bare number

* CN(C)C(=N)N=C(N)N [METFORMIN] | 136.4

Requested field: PL. Item: CC1=C(CC(=O)O)c2cc(F)ccc2/C1=C\c1ccc([S+](C)[O-])cc1 (stereo not given)
142

Requested field: PL. Item: O=NN(CCCl)C(=O)NC1CCCCC1 [LOMUSTINE]
120.8

Requested field: PL. Item: CC(C)N(CCC(C(N)=O)(c1ccccc1)c1ccccn1)C(C)C (stereo not given) [DISOPYRAMIDE]
116.8

Requested field: PL. Item: CCc1oc2ccccc2c1C(=O)c1cc(Br)c(O)c(Br)c1 [BENZBROMARONE]
126.4
